Origin of the recorded values: ChEMBL document CHEMBL3526119

assay: Terminal half life in healthy white human at 2 mg, po; type: ADME, organism-based; conditions: in vivo, read-out: beta t1/2 (converted)
MEASURED PARAMETER: half-life (h)
Report only the number, with the unit h understood.

Prompt line: Fill blank: measured half-life of the molecule CCOc1cc(CC(=O)N[C@@H](CC(C)C)c2ccccc2N2CCCCC2)ccc1C(=O)O [REPAGLINIDE] is ____.
Response line: 1.3

---

assay: Terminal half life in healthy white human with CYP2C8*1/*1 genotype at 2 mg, po; format: ADME, organism-based; conditions: in vivo, read-out: beta t1/2 (converted)
MEASURED PARAMETER: half-life (h)
Report only the number, with the unit h understood.

Prompt line: Fill blank: measured half-life of the compound CCOc1cc(CC(=O)N[C@@H](CC(C)C)c2ccccc2N2CCCCC2)ccc1C(=O)O [REPAGLINIDE] is ____.
Response line: 1.2
